List of Kd values.
Biological target: UniProtKB P33764
Sequence (P33764 whole entry): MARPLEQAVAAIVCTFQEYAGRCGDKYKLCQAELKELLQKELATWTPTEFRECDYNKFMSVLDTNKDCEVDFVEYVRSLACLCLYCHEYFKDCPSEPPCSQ

>  <Input Smiles>
CSCC[C@@H](CC(=O)N[C@H]1CCCC[C@@H]1C(=O)NCC(=O)N[C@@H](CCCCNC(=O)c1ccc2c(c1)C1(OC2=O)c2ccc(O)cc2Oc2cc(O)ccc21)C(N)=O)NC(=O)[C@H]1CCCC[C@@H]1NC(=O)[C@H]1CCCC[C@@H]1NC(=O)C[C@@H](NC(=O)[C@H]1CCCC[C@@H]1N)[C@@H](C)O

>  <Kd>
> 1000 µM

$$$$
>  <Input Smiles>
N=C(N)NCCC[C@@H](CC(=O)N[C@H]1CCCC[C@@H]1C(=O)NCC(=O)N[C@@H](CCCCNC(=O)c1ccc2c(c1)C1(OC2=O)c2ccc(O)cc2Oc2cc(O)ccc21)C(N)=O)NC(=O)[C@H]1CCCC[C@@H]1NC(=O)[C@H]1CCCC[C@@H]1NC(=O)C[C@H](CCCNC(=N)N)NC(=O)[C@H]1CCCC[C@@H]1N

>  <Kd>
> 1000 µM

$$$$
>  <Input Smiles>
CC(C)C[C@@H](CC(=O)N[C@H]1CCCC[C@@H]1C(=O)NCC(=O)N[C@@H](CCCCNC(=O)c1ccc2c(c1)C1(OC2=O)c2ccc(O)cc2Oc2cc(O)ccc21)C(N)=O)NC(=O)[C@H]1CCCC[C@@H]1NC(=O)[C@H]1CCCC[C@@H]1NC(=O)C[C@@H](NC(=O)[C@H]1CCCC[C@@H]1N)C(C)C

>  <Kd>
> 1000 µM

$$$$

---

List of pKd values.
Target: S100A5 (Homo sapiens, UniProt P33763)
Sequence (P33763 1-92): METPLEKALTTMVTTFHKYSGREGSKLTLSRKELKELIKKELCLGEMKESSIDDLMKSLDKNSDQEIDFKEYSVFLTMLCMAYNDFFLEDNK
pKd: −log10 of the molar value.

>  <Input Smiles>
CC(C)C[C@@H](CC(=O)N[C@H]1CCCC[C@@H]1C(=O)NCC(=O)N[C@@H](CCCCNC(=O)c1ccc2c(c1)C1(OC2=O)c2ccc(O)cc2Oc2cc(O)ccc21)C(N)=O)NC(=O)[C@H]1CCCC[C@@H]1NC(=O)[C@H]1CCCC[C@@H]1NC(=O)C[C@@H](NC(=O)[C@H]1CCCC[C@@H]1N)C(C)C

>  <pKd>
3.96

$$$$
>  <Input Smiles>
NC(=O)[C@H](CCCCNC(=O)c1ccc2c(c1)C1(OC2=O)c2ccc(O)cc2Oc2cc(O)ccc21)NC(=O)CNC(=O)[C@H]1CCCC[C@@H]1NC(=O)C[C@H](Cc1c[nH]c2ccccc12)NC(=O)[C@H]1CCCC[C@@H]1NC(=O)[C@H]1CCCC[C@@H]1NC(=O)C[C@H](Cc1c[nH]c2ccccc12)NC(=O)[C@H]1CCCC[C@@H]1N

>  <pKd>
4.11

$$$$
>  <Input Smiles>
N=C(N)NCCC[C@@H](CC(=O)N[C@H]1CCCC[C@@H]1C(=O)NCC(=O)N[C@@H](CCCCNC(=O)c1ccc2c(c1)C1(OC2=O)c2ccc(O)cc2Oc2cc(O)ccc21)C(N)=O)NC(=O)[C@H]1CCCC[C@@H]1NC(=O)[C@H]1CCCC[C@@H]1NC(=O)C[C@H](CCCNC(=N)N)NC(=O)[C@H]1CCCC[C@@H]1N

>  <pKd>
4.35

$$$$
>  <Input Smiles>
CSCC[C@@H](CC(=O)N[C@H]1CCCC[C@@H]1C(=O)NCC(=O)N[C@@H](CCCCNC(=O)c1ccc2c(c1)C1(OC2=O)c2ccc(O)cc2Oc2cc(O)ccc21)C(N)=O)NC(=O)[C@H]1CCCC[C@@H]1NC(=O)[C@H]1CCCC[C@@H]1NC(=O)C[C@@H](NC(=O)[C@H]1CCCC[C@@H]1N)[C@@H](C)O

>  <pKd>
3.69

$$$$
>  <Input Smiles>
CC[C@H](C)[C@@H](CC(=O)N[C@H]1CCCC[C@@H]1C(=O)N[C@H]1CCCC[C@@H]1C(=O)N[C@H](CC(=O)N[C@H]1CCCC[C@@H]1C(=O)NCC(=O)N[C@@H](CCCCNC(=O)c1ccc2c(c1)C1(OC2=O)c2ccc(O)cc2Oc2cc(O)ccc21)C(N)=O)Cc1ccccc1)NC(=O)[C@H]1CCCC[C@@H]1N

>  <pKd>
4.57

$$$$
>  <Input Smiles>
CC[C@H](C)[C@@H](CC(=O)N[C@H]1CCCC[C@@H]1C(=O)NCC(=O)N[C@@H](CCCCNC(=O)c1ccc2c(c1)C1(OC2=O)c2ccc(O)cc2Oc2cc(O)ccc21)C(N)=O)NC(=O)[C@H]1CCCC[C@@H]1NC(=O)[C@H]1CCCC[C@@H]1NC(=O)C[C@@H](NC(=O)[C@H]1CCCC[C@@H]1N)[C@@H](C)O

>  <pKd>
3.57

$$$$
>  <Input Smiles>
C[C@@H](O)[C@@H](CC(=O)N[C@H]1CCCC[C@@H]1C(=O)N[C@H]1CCCC[C@@H]1C(=O)N[C@H](CC(=O)N[C@H]1CCCC[C@@H]1C(=O)NCC(=O)N[C@@H](CCCCNC(=O)c1ccc2c(c1)C1(OC2=O)c2ccc(O)cc2Oc2cc(O)ccc21)C(N)=O)Cc1c[nH]c2ccccc12)NC(=O)[C@H]1CCCC[C@@H]1N

>  <pKd>
4.21

$$$$
>  <Input Smiles>
N=C(N)NCCC[C@@H](CC(=O)N[C@H]1CCCC[C@@H]1C(=O)N[C@H]1CCCC[C@@H]1C(=O)N[C@H](CC(=O)N[C@H]1CCCC[C@@H]1C(=O)NCC(=O)N[C@@H](CCCCNC(=O)c1ccc2c(c1)C1(OC2=O)c2ccc(O)cc2Oc2cc(O)ccc21)C(N)=O)Cc1ccccc1)NC(=O)[C@H]1CCCC[C@@H]1N

>  <pKd>
4.34

$$$$
>  <Input Smiles>
CC(C)C[C@@H](CC(=O)N[C@H]1CCCC[C@@H]1C(=O)NCC(=O)N[C@@H](CCCCNC(=O)c1ccc2c(c1)C1(OC2=O)c2ccc(O)cc2Oc2cc(O)ccc21)C(N)=O)NC(=O)[C@H]1CCCC[C@@H]1NC(=O)[C@H]1CCCC[C@@H]1NC(=O)C[C@H](Cc1c[nH]c2ccccc12)NC(=O)[C@H]1CCCC[C@@H]1N

>  <pKd>
4.85

$$$$

---

List of pKd values.
Molecular target: S100Z (Homo sapiens, UniProt Q8WXG8)
Sequence (Q8WXG8 whole entry): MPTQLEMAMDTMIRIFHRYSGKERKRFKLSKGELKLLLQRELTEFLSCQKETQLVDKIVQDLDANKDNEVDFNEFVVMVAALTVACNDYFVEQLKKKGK
Assay: direct fluorescence polarization (FP), S100Z
Conditions: 50 nM labeled foldamer, 20 mM HEPES pH 7.5, 150 mM NaCl, 1 mM CaCl2, 0.5 mM TCEP, 0.01% Tween20, quadratic fit, mean ± SEM, three technical repeats, threshold 1 mM
pKd: −log10 of the molar value.
Measured Property: pKd

>  <Input Smiles>
CC[C@H](C)[C@@H](CC(=O)N[C@H]1CCCC[C@@H]1C(=O)N[C@H]1CCCC[C@@H]1C(=O)N[C@H](CC(=O)N[C@H]1CCCC[C@@H]1C(=O)NCC(=O)N[C@@H](CCCCNC(=O)c1ccc2c(c1)C1(OC2=O)c2ccc(O)cc2Oc2cc(O)ccc21)C(N)=O)Cc1ccccc1)NC(=O)[C@H]1CCCC[C@@H]1N

>  <Subject Of Test>
S100Z (Homo sapiens, UniProt Q8WXG8)

>  <Meas Value>
3.32

$$$$
>  <Input Smiles>
N=C(N)NCCC[C@@H](CC(=O)N[C@H]1CCCC[C@@H]1C(=O)NCC(=O)N[C@@H](CCCCNC(=O)c1ccc2c(c1)C1(OC2=O)c2ccc(O)cc2Oc2cc(O)ccc21)C(N)=O)NC(=O)[C@H]1CCCC[C@@H]1NC(=O)[C@H]1CCCC[C@@H]1NC(=O)C[C@H](CCCNC(=N)N)NC(=O)[C@H]1CCCC[C@@H]1N

>  <Subject Of Test>
S100Z (Homo sapiens, UniProt Q8WXG8)

>  <Meas Value>
< 3.00

$$$$
>  <Input Smiles>
CSCC[C@@H](CC(=O)N[C@H]1CCCC[C@@H]1C(=O)NCC(=O)N[C@@H](CCCCNC(=O)c1ccc2c(c1)C1(OC2=O)c2ccc(O)cc2Oc2cc(O)ccc21)C(N)=O)NC(=O)[C@H]1CCCC[C@@H]1NC(=O)[C@H]1CCCC[C@@H]1NC(=O)C[C@@H](NC(=O)[C@H]1CCCC[C@@H]1N)[C@@H](C)O

>  <Subject Of Test>
S100Z (Homo sapiens, UniProt Q8WXG8)

>  <Meas Value>
< 3.00

$$$$

---

This document collects Kd values reported for S100A15 (Homo sapiens).

>  <Compound>
CC[C@H](C)[C@@H](CC(=O)N[C@H]1CCCC[C@@H]1C(=O)N[C@H]1CCCC[C@@H]1C(=O)N[C@H](CC(=O)N[C@H]1CCCC[C@@H]1C(=O)NCC(=O)N[C@@H](CCCCNC(=O)c1ccc2c(c1)C1(OC2=O)c2ccc(O)cc2Oc2cc(O)ccc21)C(N)=O)CC(C)C)NC(=O)[C@H]1CCCC[C@@H]1N [fIL]

>  <Kd>
> 1000 µM

$$$$
>  <Compound>
NC(=O)[C@H](CCCCNC(=O)c1ccc2c(c1)C1(OC2=O)c2ccc(O)cc2Oc2cc(O)ccc21)NC(=O)CNC(=O)[C@H]1CCCC[C@@H]1NC(=O)C[C@H](Cc1ccccc1)NC(=O)[C@H]1CCCC[C@@H]1NC(=O)[C@H]1CCCC[C@@H]1NC(=O)C[C@H](Cc1ccc(O)cc1)NC(=O)[C@H]1CCCC[C@@H]1N [fYF]

>  <Kd>
> 1000 µM

$$$$
>  <Compound>
N=C(N)NCCC[C@@H](CC(=O)N[C@H]1CCCC[C@@H]1C(=O)NCC(=O)N[C@@H](CCCCNC(=O)c1ccc2c(c1)C1(OC2=O)c2ccc(O)cc2Oc2cc(O)ccc21)C(N)=O)NC(=O)[C@H]1CCCC[C@@H]1NC(=O)[C@H]1CCCC[C@@H]1NC(=O)C[C@H](CCCNC(=N)N)NC(=O)[C@H]1CCCC[C@@H]1N [fRR]

>  <Kd>
> 1000 µM

$$$$
>  <Compound>
NC(=O)[C@H](CCCCNC(=O)c1ccc2c(c1)C1(OC2=O)c2ccc(O)cc2Oc2cc(O)ccc21)NC(=O)CNC(=O)[C@H]1CCCC[C@@H]1NC(=O)C[C@H](Cc1c[nH]c2ccccc12)NC(=O)[C@H]1CCCC[C@@H]1NC(=O)[C@H]1CCCC[C@@H]1NC(=O)C[C@H](Cc1c[nH]c2ccccc12)NC(=O)[C@H]1CCCC[C@@H]1N [fWW]

>  <Kd>
> 1000 µM

$$$$
